Source of measurements: ChEMBL document CHEMBL3875181

- ASSAY SUMMARY: Non-competitive inhibition of Escherichia coli thymidine phosphorylase expressed in Escherichia coli preincubated for 10 mins followed by varying levels of thymidine substrate addition by Lineweaver-Burk plot analysis
RECORDED ENDPOINT: Ki (µM)
Give your result in µM as a bare value.

Field request: Ki | item: `O=c1[nH]c(-c2ccc(O)c(O)c2)nc2ccccc12`
52.3

* * *

- MEASUREMENT TARGET: Thymidine phosphorylase (Homo sapiens, UniProt P19971)
- Sequence (P19971 whole entry): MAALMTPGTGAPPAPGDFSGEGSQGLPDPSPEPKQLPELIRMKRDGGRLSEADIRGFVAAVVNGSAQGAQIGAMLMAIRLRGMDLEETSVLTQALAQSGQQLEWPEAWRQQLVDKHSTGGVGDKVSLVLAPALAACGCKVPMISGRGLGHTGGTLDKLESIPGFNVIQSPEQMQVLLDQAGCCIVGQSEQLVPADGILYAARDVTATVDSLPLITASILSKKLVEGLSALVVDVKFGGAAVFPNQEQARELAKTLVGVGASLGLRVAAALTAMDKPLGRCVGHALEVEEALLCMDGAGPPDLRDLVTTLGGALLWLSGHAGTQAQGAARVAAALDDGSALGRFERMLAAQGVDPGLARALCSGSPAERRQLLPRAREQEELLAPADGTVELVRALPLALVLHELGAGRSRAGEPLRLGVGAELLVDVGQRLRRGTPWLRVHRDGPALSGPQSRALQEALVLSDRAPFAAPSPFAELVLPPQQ
RECORDED ENDPOINT: IC50 (µM)
Give your result in µM as a bare value.

Field request: IC50 | item: `O=C(OCc1cc(O)ccc1O[C@@H]1O[C@H](CO)[C@@H](O)[C@@H](OC(=O)c2ccc(O)cc2)[C@H]1O)c1ccccc1`
226
